SYSTEM_TESTED: DP receptor (Homo sapiens)
Construct: the human cell line LS174T, which expresses the endogenous DP receptor; endogenous in cells
Sequence (Q13258 whole entry): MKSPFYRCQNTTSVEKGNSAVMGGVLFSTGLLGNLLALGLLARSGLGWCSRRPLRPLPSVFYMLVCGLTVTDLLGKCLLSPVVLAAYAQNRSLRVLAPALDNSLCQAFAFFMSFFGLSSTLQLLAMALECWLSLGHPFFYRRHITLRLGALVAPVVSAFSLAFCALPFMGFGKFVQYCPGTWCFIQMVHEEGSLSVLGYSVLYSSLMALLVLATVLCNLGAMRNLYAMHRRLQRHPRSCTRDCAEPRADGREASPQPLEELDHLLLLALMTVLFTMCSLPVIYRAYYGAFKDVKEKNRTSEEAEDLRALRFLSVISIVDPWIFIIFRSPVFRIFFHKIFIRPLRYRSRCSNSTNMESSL
PROTOCOL_DESCRIPTION: SPA cAMP assay in human LS174 T cells (human DP functional assay)
SETTINGS: inhibition of PGD2 (15 nM final) stimulated cAMP, LS174T cells expressing endogenous DP receptor
MEASURED_PROPERTY: IC50 (nM)

Worked cases, answers included:
COMPOUND: COc1nc(NCCc2ccc(F)cc2F)cc(-c2cccc(C(=O)O)c2)n1
SYSTEM_TESTED: DP receptor (Homo sapiens)
REPORTED_MEASUREMENT: 0.8
//
COMPOUND: COc1nc(NCC2OCCc3ccccc32)cc(-c2cccc(C(C)(C)C(=O)O)c2)n1 (centres unmarked)
SYSTEM_TESTED: DP receptor (Homo sapiens)
REPORTED_MEASUREMENT: 23
//
COMPOUND: COc1ccc(CCNc2cc(-c3ccsc3CO)nc(OC)n2)cc1
SYSTEM_TESTED: DP receptor (Homo sapiens)
REPORTED_MEASUREMENT: 1.7
//
COMPOUND: COc1ccc(CCNc2cc(-c3ccc(N(C)C)cc3)nc(OC)n2)cc1
SYSTEM_TESTED: DP receptor (Homo sapiens)
REPORTED_MEASUREMENT: 42
//
COMPOUND: COc1nc(NCCc2ccc(Cl)cc2Cl)cc(N2CCCC(c3nn[nH]n3)C2)n1 (centres unmarked)
SYSTEM_TESTED: DP receptor (Homo sapiens)
REPORTED_MEASUREMENT: 5

1: COC(=O)Cn1cc(-c2cc(NCCc3c(F)cccc3Cl)nc(OC)n2)ccc1=O
2: COc1nc(NCCc2ccc(OC(F)(F)F)cc2)cc(-c2ccc(F)c(C(C)(C)C(=O)O)c2)n1
3: COc1ccc(CCNc2cc(-c3cccc(CC#N)c3)nc(OC)n2)cc1 [Example 35(s)]
Ask: Number of compounds to sort: 3. Sort criterion: IC50, ascending. List the labels, following the order given in the request.
Result: 3, 1, 2
(3: 6 nM, 1: 14 nM, 2: 193 nM)

* * *

SYSTEM_TESTED: DP receptor (Homo sapiens)
Construct: the human cell line LS174T, which expresses the endogenous DP receptor; endogenous in cells; host or cells: LS174T human cell line
PROTOCOL_DESCRIPTION: SPA cAMP assay in human LS174 T cells (human DP functional assay)
Assay type: cell-based
SETTINGS: inhibition of PGD2 (15 nM final) stimulated cAMP, LS174T cells expressing endogenous DP receptor
Counter-ions that a name gives are not always drawn.
MEASURED_PROPERTY: IC50 (nM)

Worked cases, answers included:
COMPOUND: CCOC(=O)C1(c2cccc(-c3cc(NCCc4ccc(Cl)cc4Cl)nc(OC)n3)c2)CCOCC1 [Example 80(c)]
IC50, nM: 223
//
COMPOUND: COc1ccc(CCNc2cc(-c3cccc4cnccc34)nc(OC)n2)cc1 [Example 8(g)]
IC50, nM: 64
//
COMPOUND: COc1nc(NCCc2ccc(Cl)cc2Cl)cc(N2CCC(C(=O)O)CC2)n1 [Example 97]
IC50, nM: 7
//
COMPOUND: COc1nc(NCCc2c(F)cccc2Cl)cc(-c2cccc(OCc3noc(=O)[nH]3)c2)n1 [Example 34(c), hydrochloride]
IC50, nM: 0.3
//
COMPOUND: COc1ccc(CCNc2cc(-c3ccc(OC)c(-c4nnn[nH]4)c3)nc(OC)n2)cc1 [Example 24(c)]
IC50, nM: 0.5

I: CCS(=O)(=O)NC(=O)C(F)(F)c1cccc(-c2cc(NCCc3ccc(Cl)cc3Cl)nc(OC)n2)c1 [Example 81(b)]
II: COc1nc(NCCc2ccc(Cl)cc2Cl)cc(-c2cccc(C(C)C(=O)O)c2)n1 (stereo not shown) [Example 49(a), hydrochloride]
III: COC(=O)COc1cccc(-c2cc(NCCc3ccc(Cl)cc3Cl)nc(OC)n2)c1 [Example 22(c)]
IV: CCNC(=O)Nc1cccc(-c2cc(NCCc3ccc(OC)cc3)nc(OC)n2)c1 [Example 41]
Ask: Number of compounds to sort: 4. Sort criterion: IC50, ascending. List the labels, following the order given in the request.
Result: I, III, II, IV

I: COc1nc(NCC2CN(C)c3ccccc3O2)cc(-c2cccc(C(C)(C)C(=O)O)c2)n1 (stereo not shown) [Example 92]
II: CCNS(=O)(=O)c1cccc(-c2cc(NCCc3ccc(OC)cc3)nc(OC)n2)c1 [Example 4(b)]
Ask: Could you determine which record has the numerically smaller IC50? Candidates: I and II Write down the label of the entry you select.
Result: II
